- System: DRAK2;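 also: KINOMEscan kinase panel screen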
- Construct: gene STK17B
- test-conditions: concentration: 1 μM, replicates: in singlicate; n = 1

>  <compound>
CN(c1ccc(F)c(NC(=O)c2cccc(OC(C)(C)C#N)c2Cl)c1)c1ccc2nc(NC(=O)C3CC3)sc2n1

>  <unit-abbrev>
%

>  <%Inh>
0

$$$$
>  <compound>
Cc1ccc(O)cc1Nc1ccnc2ccc(C(C)(C)C)cc12

>  <unit-abbrev>
%

>  <%Inh>
0

$$$$
>  <compound>
c1ccc(Oc2ccc(Nc3ccnc4cc(-c5ccc(CN6CCCCC6)o5)ccc34)cc2)nc1

>  <unit-abbrev>
%

>  <%Inh>
0

$$$$
>  <compound>
Nc1ncc(-c2ccc3nccc(-c4ccncc4)c3c2)cc1S(=O)(=O)N1CCCCC1

>  <unit-abbrev>
%

>  <%Inh>
5

$$$$
>  <compound>
Cn1cc(-c2ccc3c(c2)CCN3C(=O)Cc2cc(F)cc(C(F)(F)F)c2)c2c(N)ncnc21

>  <unit-abbrev>
%

>  <%Inh>
0

$$$$
>  <compound>
CC(C)c1nc(-c2ccc(F)c(NS(=O)(=O)c3c(F)cccc3F)c2)c(-c2ccnc(Nc3ccc(N4CCOCC4)nc3)n2)s1

>  <unit-abbrev>
%

>  <%Inh>
0

$$$$
>  <compound>
CCn1cnc2c(NCc3ccccc3)ncnc21

>  <unit-abbrev>
%

>  <%Inh>
0

$$$$
>  <compound>
O=C(Nc1n[nH]c2cc(-c3cccs3)ccc12)C1CC1

>  <unit-abbrev>
%

>  <%Inh>
12

$$$$
>  <compound>
CNc1nccc(-c2ccc3c(N)n[nH]c3c2)n1

>  <unit-abbrev>
%

>  <%Inh>
83

$$$$
>  <compound>
CN(C)c1ncnc2nc[nH]c12

>  <unit-abbrev>
%

>  <%Inh>
0

$$$$
>  <compound>
COc1cccc(C2=C(Nc3cccc(O)c3)C(=O)NC2=O)c1

>  <unit-abbrev>
%

>  <%Inh>
0

$$$$
>  <compound>
CCNc1nccc(-c2c(-c3ccc(F)cc3)ncn2C2CCN(C)CC2)n1

>  <unit-abbrev>
%

>  <%Inh>
0

$$$$
>  <compound>
COc1cc(Nc2ccnc3cc(-c4ccncc4)ccc23)cc(OC)c1OC.Cl

>  <unit-abbrev>
%

>  <%Inh>
0

$$$$
>  <compound>
COc1cccc(CC(=O)N2CCc3cc(-c4cn(C)c5ncnc(N)c45)ccc32)c1

>  <unit-abbrev>
%

>  <%Inh>
0

$$$$
>  <compound>
COc1cc(Nc2nccc(N3CCC(NS(=O)(=O)c4ccc(NC(C)=O)cc4)CC3)n2)cc(OC)c1OC

>  <unit-abbrev>
%

>  <%Inh>
0

$$$$
>  <compound>
Cc1ccc(-c2ccc3occ(-c4ccc(S(C)=O)cc4)c3c2)nn1 (stereo not shown)

>  <unit-abbrev>
%

>  <%Inh>
22

$$$$
>  <compound>
COc1cccc(NC(=O)NCCNc2ccnc(Nc3ccc(F)cc3)n2)c1

>  <unit-abbrev>
%

>  <%Inh>
31

$$$$
>  <compound>
O=C(Nc1n[nH]c2nc(-c3ccccc3O)ccc12)C1CC1

>  <unit-abbrev>
%

>  <%Inh>
0

$$$$
>  <compound>
Cc1ccc(Nc2ccnc(Nc3ccc(C)c(F)c3)n2)cc1O.Cl

>  <unit-abbrev>
%

>  <%Inh>
0

$$$$
>  <compound>
Cc1ccc(NC(=O)c2ccnc(N3CCCCC3)c2)cc1-c1ccc(C(=O)NCC2CC2)cc1

>  <unit-abbrev>
%

>  <%Inh>
0

$$$$
>  <compound>
CN(C)CCOc1ccc(-c2cc(-c3ccc(Cl)c(O)c3)c(-c3ccncc3)[nH]2)cc1.Cl.Cl

>  <unit-abbrev>
%

>  <%Inh>
0

$$$$
>  <compound>
Cc1cccc(Nc2nc(N[C@H]3CCCC[C@H]3N)ncc2C(N)=O)c1.Cl

>  <unit-abbrev>
%

>  <%Inh>
18

$$$$
>  <compound>
Cc1cc(-c2c(-c3ccc(F)cc3)ncn2CCCN2CCOCC2)nc(N)n1

>  <unit-abbrev>
%

>  <%Inh>
15

$$$$
>  <compound>
CCOc1nccc(-c2c(-c3ccc(F)cc3)ncn2C2CCNCC2)n1

>  <unit-abbrev>
%

>  <%Inh>
0

$$$$
>  <compound>
Cl.Cl.NCC(NC(=O)c1cc(-c2cccnc2)c(-c2ccnc3[nH]ccc23)s1)c1ccccc1 (stereo not shown)

>  <unit-abbrev>
%

>  <%Inh>
0

$$$$
>  <compound>
CN(c1ccc(NC(=O)N2CCN(CCCN3CCOCC3)CC2)cc1)c1ccnc(Nc2ccc(CS(C)(=O)=O)cc2)n1.Cl

>  <unit-abbrev>
%

>  <%Inh>
13

$$$$
>  <compound>
COc1ccc(C2=C(Nc3cccc(O)c3)C(=O)NC2=O)cc1

>  <unit-abbrev>
%

>  <%Inh>
0

$$$$
>  <compound>
CSc1ccc(NC2=C(c3ccc(Cl)cc3)C(=O)NC2=O)cc1

>  <unit-abbrev>
%

>  <%Inh>
0

$$$$
>  <compound>
CS(=O)(=O)c1cccc(CNc2nc(Nc3ccc4c(c3)CCC(=O)N4)ncc2C(F)(F)F)c1

>  <unit-abbrev>
%

>  <%Inh>
98.3

$$$$
>  <compound>
NCCC(NC(=O)c1cc(Br)c(-c2ccnc3[nH]ccc23)s1)c1ccccc1.O=C(O)C(F)(F)F.O=C(O)C(F)(F)F (stereo not shown)

>  <unit-abbrev>
%

>  <%Inh>
0

$$$$
>  <compound>
COC(=O)Nc1nc2ccc(Oc3ccc(NC(=O)Nc4cc(C(F)(F)F)ccc4F)cc3)cc2[nH]1.Cl

>  <unit-abbrev>
%

>  <%Inh>
1

$$$$
>  <compound>
COc1cc(Nc2nccc(N3CCC(NC(=O)Nc4ccc5c(c4)OCO5)C3)n2)cc(OC)c1OC (stereo not shown)

>  <unit-abbrev>
%

>  <%Inh>
4

$$$$
>  <compound>
Cc1ccccc1CC(=O)N1CCc2cc(-c3cn(C)c4ncnc(N)c34)ccc21

>  <unit-abbrev>
%

>  <%Inh>
0

$$$$
>  <compound>
COC(=O)Nc1nc2ccc(Oc3ccc(CC(=O)Nc4cc(C(F)(F)F)ccc4F)cc3)cc2[nH]1

>  <unit-abbrev>
%

>  <%Inh>
0

$$$$
